# targetOrSystem: Human Calpain 2/NS1 (Homo sapiens, UniProt P17655)
# Sequence (P17655 whole entry): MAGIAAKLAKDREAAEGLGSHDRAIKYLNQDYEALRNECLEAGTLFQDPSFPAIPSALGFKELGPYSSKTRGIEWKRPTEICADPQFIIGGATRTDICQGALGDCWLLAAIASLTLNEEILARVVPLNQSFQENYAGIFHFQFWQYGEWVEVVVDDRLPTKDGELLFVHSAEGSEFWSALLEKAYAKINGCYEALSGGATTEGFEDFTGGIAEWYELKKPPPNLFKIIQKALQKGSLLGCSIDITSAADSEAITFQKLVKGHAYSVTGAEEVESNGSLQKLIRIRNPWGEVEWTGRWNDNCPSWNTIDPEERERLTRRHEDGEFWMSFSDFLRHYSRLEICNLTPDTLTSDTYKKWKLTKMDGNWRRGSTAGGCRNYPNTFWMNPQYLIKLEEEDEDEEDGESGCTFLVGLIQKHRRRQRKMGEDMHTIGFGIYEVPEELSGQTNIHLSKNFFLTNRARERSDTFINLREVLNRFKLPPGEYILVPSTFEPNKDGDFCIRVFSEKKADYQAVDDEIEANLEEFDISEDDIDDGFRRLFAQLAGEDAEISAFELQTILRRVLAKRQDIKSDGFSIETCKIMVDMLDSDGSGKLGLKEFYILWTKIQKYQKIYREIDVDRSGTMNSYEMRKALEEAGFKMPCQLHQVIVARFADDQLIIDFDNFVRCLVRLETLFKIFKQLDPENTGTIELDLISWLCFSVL
# Sequence (P04632 whole entry partner): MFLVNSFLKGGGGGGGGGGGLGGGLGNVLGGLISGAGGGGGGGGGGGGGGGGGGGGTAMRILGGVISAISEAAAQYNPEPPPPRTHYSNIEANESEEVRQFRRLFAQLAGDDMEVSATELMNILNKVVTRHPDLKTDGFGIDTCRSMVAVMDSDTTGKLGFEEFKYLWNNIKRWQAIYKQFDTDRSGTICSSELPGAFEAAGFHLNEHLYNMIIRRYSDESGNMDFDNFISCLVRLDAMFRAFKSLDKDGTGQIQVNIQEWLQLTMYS
# assayMethodText: Calpain inhibition continuous fluorescence (FRET) assay, Human Calpain 2/NS1
# Type: biochemical
# assaySetup: Column B; read-out: Human Calpain 2/NS1 IC50
pIC50: −log10 of the molar value.
metric: pIC50

Previously resolved entries follow.
Cc1cc(C(=O)N[C@@H](Cc2ccccc2)C(=O)C(N)=O)n(-c2ncccn2)n1 (single isomer, unassigned) [Compound 36] | 5.00 to 5.52
Cn1cc(C(=O)N[C@@H](Cc2ccccc2)C(=O)C(N)=O)c(-c2cccnc2)n1 | > 5.52
Cc1cc(C(=O)N[C@@H](Cc2ccccc2)C(=O)C(N)=O)n(-c2ccc(CNS(=O)(=O)c3ccccc3)cc2)n1 | > 5.52
CC(C)c1cc(C(=O)N[C@@H](Cc2ccccc2)C(=O)C(N)=O)n(-c2ccccc2)n1 | 5.00 to 5.52
C[C@@H]1C[C@@H](C(=O)NC(Cc2ccccc2)C(=O)C(N)=O)N(c2ccccc2)C1 (stereo partly drawn) | > 5.52

Field pIC50 (entry `O=C[C@H](Cc1ccccc1)NC(=O)[C@@H]1CCCN1c1nc2ccccc2o1` ) reads > 5.52

---

# Tested on: Calpain activity in SH-SY5Y cells
# assayMethodText: SH-SY5Y + AMC fluorescence assay (Suc-LLVY-AMC substrate)
# Format: cell-based
# assaySetup: read-out: SH-SY5Y + AMC IC50
metric: IC50

Previously resolved entries follow.
Cn1cc(C(=O)NC(Cc2ccccc2)C(=O)C(N)=O)c(-c2ccoc2)n1 (centres unmarked) [Compound 502] | < 10 µM
Cc1ccncc1-c1nn(C(F)F)cc1C(=O)NC(Cc1ccccc1)C(=O)C(N)=O (centres unmarked) [Compound 522] | < 10 µM
Cc1nc(-c2cnc3ccccc3n2)c(C(=O)NC(Cc2ccccc2)C(=O)C(N)=O)o1 (centres unmarked) [Compound 356] | > 25 µM
Cn1cc(C(=O)NC(Cc2ccccc2)C(=O)C(N)=O)c(-n2ncc3ccccc32)n1 (centres unmarked) [Compound 530] | > 25 µM
CC(C)C[C@H](NC(=O)c1cn(C)nc1-c1ccccc1)C(=O)C(N)=O [Compound 415] | > 25 µM
Cc1nc(-c2cccc(F)c2)c(C(=O)N[C@H](C=O)Cc2ccccc2)o1 [Compound 353] | > 25 µM

Field IC50 (entry Cn1cc(C(=O)NC(Cc2ccccc2)C(=O)C(N)=O)c(-c2ccsc2)n1 (centres unmarked) [Compound 503] ) reads 10 to 25 µM

Field IC50 (entry Cc1cccc(-c2nsnc2C(=O)NC(Cc2ccccc2)C(=O)C(N)=O)c1 (centres unmarked) [Compound 325] ) reads > 25 µM

Field IC50 (entry NC(=O)C(=O)[C@H](Cc1ccccc1)NC(=O)c1cn(-c2ccccc2)nc1-c1ccccc1 [Compound 309] ) reads < 10 µM

Field IC50 (entry NC(=O)C(=O)C(Cc1ccccc1)NC(=O)c1cn(C(F)F)nc1-c1cccc2cnccc12 (centres unmarked) [Compound 598] ) reads < 10 µM

Field IC50 (entry CC[C@H](NC(=O)c1cn(C)nc1-c1ccccc1)C(=O)C(N)=O [Compound 332] ) reads > 25 µM

Field IC50 (entry Cn1cc(C(=O)NC(Cc2ccccc2)C(=O)C(N)=O)c(-c2ccco2)n1 (centres unmarked) [Compound 500] ) reads < 10 µM

Field IC50 (entry CC[C@@H](C)[C@H](NC(=O)c1oc(C)nc1-c1ccccc1)C(=O)C(N)=O [Compound 387] ) reads > 25 µM

Field IC50 (entry NC(=O)C(=O)C(Cc1ccccc1)NC(=O)c1cn(C(F)F)nc1-c1ccc2ccccc2n1 (centres unmarked) [Compound 588] ) reads > 25 µM

Field IC50 (entry CCCCC(NC(=O)c1oc(C)nc1-c1ccccc1)C(=O)C(=O)NC1CC1 (centres unmarked) [Compound 460] ) reads > 25 µM

Field IC50 (entry Cn1cc(C(=O)NC(Cc2ccccc2)C(=O)C(N)=O)c(-c2cncc3ccccc23)n1 (centres unmarked) [Compound 591] ) reads > 25 µM
